- Method: basal S. cerevisiae growth modulation, no modifier, primary screen, OD600, strain BY4716, 24 h, basal condition (AID 1173)
- Particulars: OD600, 24 h, higher = more signal, called active from +8 up or from −8 down
Experimental Endpoint: z-score
Answer with a number only.

Some compounds with known z-score results, for comparison:
{"columns": ["Compound", "Endpoint Value"],
 "data": [
  ["C[C@H]1NC(=O)[C@@]23C(=O)N[C@@H](Cc4ccccc4)C2[C@H](C)[C@@]2(C)O[C@H]2C3/C=C/C/C=C\\CNC(=O)[C@@H]2CCCN2C1=O (stereo partly drawn)", -0.704],
  ["CCC[C@@H]1C[C@@]1(CCC)[C@@H](NS(=O)(=O)c1cccc2cccnc12)c1ccc(Cl)cc1", 1.43]
]}

Now for a further compound.
Please indicate z-score recorded for "COCCOC(=O)N1C(=O)[C@@]2(c3cc(C#CCC(C(=O)OC)C(=O)OC)ccc31)[C@H](C(=O)N1CCN(c3ncccn3)CC1)[C@H]1C(=O)O[C@H](c3ccccc3)[C@H](c3ccccc3)N1[C@@H]2c1ccccc1OCCO" 1.51

* * *

- Measured Target: NADPH oxidase 4 (Homo sapiens) (UniProt Q9NPH5)
- Sequence (Q9NPH5 whole entry, looked up): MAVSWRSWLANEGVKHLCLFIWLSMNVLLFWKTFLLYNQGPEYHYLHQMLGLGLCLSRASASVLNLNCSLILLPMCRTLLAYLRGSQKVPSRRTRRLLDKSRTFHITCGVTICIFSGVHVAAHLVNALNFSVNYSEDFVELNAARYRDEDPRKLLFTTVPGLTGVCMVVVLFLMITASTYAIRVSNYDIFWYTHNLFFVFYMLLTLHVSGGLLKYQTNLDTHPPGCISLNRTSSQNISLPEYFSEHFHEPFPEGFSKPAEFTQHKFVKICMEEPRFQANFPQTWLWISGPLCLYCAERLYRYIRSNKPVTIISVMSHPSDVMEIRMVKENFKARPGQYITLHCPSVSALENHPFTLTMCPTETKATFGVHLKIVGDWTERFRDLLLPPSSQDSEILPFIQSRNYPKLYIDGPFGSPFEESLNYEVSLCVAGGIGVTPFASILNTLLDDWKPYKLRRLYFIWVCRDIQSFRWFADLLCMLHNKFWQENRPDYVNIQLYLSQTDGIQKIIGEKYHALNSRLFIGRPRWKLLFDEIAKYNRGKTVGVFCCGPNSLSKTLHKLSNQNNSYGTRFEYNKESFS
- Method: NOX4-dependent H2O2 signal modulators, primary screen, NOX inhibitor project, cell-based, HEK293-NOX4, tetracycline-induced, Amplex Red fluorescence (AID 1160)
- Particulars: 45 min, higher = more signal, called active from +8 up or from −8 down
Experimental Endpoint: z-score
Answer with a number only.

Some molecules with known z-score results, for comparison:
{"columns": ["Molecule", "Experimental Endpoint", "Endpoint Value"],
 "data": [
  ["O=C1C[C@]2(c3ccc([N+](=O)[O-])cc3)C(=O)N(CC(F)(F)F)c3cc(CO)ccc3[C@H]2N1C1CCCCC1", "z-score", 0.00678],
  ["CCCCN1CC=CC23O[C@@H]4C=CCCOC(=O)C4[C@H]2C(=O)N(CCCCCCO)[C@@H]3C1=O (some centres undefined)", "z-score", -0.13],
  ["CCOC(=O)C[C@H]1[C@H](OC(=O)c2ccc(C(=O)c3ccccc3)cc2)[C@@H](NC(=O)c2ccccc2)c2cc(OCCCO)ccc2N1C(=O)c1ccc2ccccc2n1", "z-score", 0.923],
  ["CC(C)[Si]1(C(C)C)O[C@@H](c2ccccc2)c2cc(-c3ccc(-c4ccc(Cl)c(Cl)c4)o3)nc(-c3ccccc3)c21", "z-score", 1.36],
  ["CCC(CC)C(O)C1C=CC2C(=O)NC(=O)C2N1Nc1ccccn1 (centres undefined)", "z-score", -2.05],
  ["O=C(NCCN1CCOCC1)C1N=C(c2ccc(OCCCO)cc2)N(c2ccccc2)O1 (centres undefined)", "z-score", -0.0142],
  ["CN(C)CCCC[C@@H]1NC(=O)[C@@H]2C[C@H](C(=O)NCCCCCCN)[C@H](c3cccc(OCCO)c3)N2C1=O", "z-score", 1.14],
  ["COC(=O)C(CC#Cc1ccc2c(c1)[C@]1(C(=O)N2)[C@H](c2ccc(OCCO)cc2)N2[C@H](c3ccccc3)[C@H](c3ccccc3)OC(=O)[C@H]2[C@@H]1C(=O)Nc1nc2ccccc2s1)C(=O)OC", "z-score", 0.786]
]}

Please indicate z-score recorded for "NCCCCCNC(=O)[C@@H]1C[C@@H]2C(=O)N[C@@H](Cc3ccccc3)C(=O)N2[C@@H]1c1ccc(O)cc1" 0.539

Please indicate z-score recorded for "C=CCN1C(=O)[C@]2(O[C@H](CCn3cc([C@H](O)c4ccccc4)nn3)[C@@H]([Si](C)(C)c3ccc(OC)cc3)[C@@H]2C)c2cc(N3CCC3=O)ccc21" -0.709

Please indicate z-score recorded for CCN(CC)c1ccc(N2CC=CC34O[C@@H]5C=CCCOC(=O)C5[C@H]3C(=O)N(CCCCCCO)[C@@H]4C2=O)cc1 (some centres undefined) 0.576

Please indicate z-score recorded for "CC(C)(C)OC(=O)CC[C@]1(C(=O)N2CCOCC2)N=C(c2ccc(OCCCO)cc2)O[C@H]1c1ccccc1N=[N+]=[N-]" -0.279

Please indicate z-score recorded for "CC(C)=CCN[C@H](CO)c1ccccc1" -0.688

Please indicate z-score recorded for "C=CCOC(=O)[C@H]1[C@@H]2C(=O)O[C@@H](c3ccccc3)[C@@H](c3ccccc3)N2[C@@H](c2ccc(OCCOC(=O)[C@@H]3C[C@@H]4C(=O)N[C@@H](CC(C)C)C(=O)N4[C@@H]3c3ccc(O)cc3)cc2)[C@]12C(=O)Nc1ccccc12" 1.18
